Origin of values: ChEMBL document CHEMBL1145291

Assay: Inhibition of PrP-res formation in prion Fukuoka1 strain infected mouse N2a#58 cells relative to control
Type: functional
endpoint: IC50 (nM)
Report the value in nM with no unit label.

IN: Reported IC50, molecule C1=Cc2nc1c(-c1ccccc1)c1nc(c(-c3ccccc3)c3ccc([nH]3)c(-c3ccccc3)c3ccc([nH]3)c2-c2ccccc2)C=C1 : ____
OUT: 320

IN: Let us now turn to O=S(=O)(O)c1ccc(-c2c3nc(c(-c4ccc(S(=O)(=O)O)cc4)c4ccc([nH]4)c(-c4ccc(S(=O)(=O)O)cc4)c4ccc([nH]4)c(-c4ccc(S(=O)(=O)O)cc4)c4nc2C=C4)C=C3)cc1
OUT: 160

IN: Same read-out for C[n+]1ccc(-c2c3nc(c(-c4cc[n+](C)cc4)c4ccc([nH]4)c(-c4cc[n+](C)cc4)c4nc(c(-c5cc[n+](C)cc5)c5ccc2[nH]5)C=C4)C=C3)cc1 ?
OUT: 160

IN: Then c1ccc2cc(-c3ccc4ccccc4n3)ncc2c1 ?
OUT: 250

IN: Likewise for O=C(O)c1ccc(-c2c3nc(c(-c4ccc(C(=O)O)cc4)c4ccc([nH]4)c(-c4ccc(C(=O)O)cc4)c4ccc([nH]4)c(-c4ccc(C(=O)O)cc4)c4nc2C=C4)C=C3)cc1 ?
OUT: 160

IN: Then Cc1cc(-c2ccccc2)c2ccc3c(-c4ccccc4)cc(C)nc3c2n1 ?
OUT: 200
